IC50, in vitro cytotoxicity (WST-8, 5 days), Jeg-3 cells, ADC listing for selected binders.
Target Or System: folate receptor alpha (FRα) on cells (human, UniProt P15328 25-234)
Sequence (P15328 25-234): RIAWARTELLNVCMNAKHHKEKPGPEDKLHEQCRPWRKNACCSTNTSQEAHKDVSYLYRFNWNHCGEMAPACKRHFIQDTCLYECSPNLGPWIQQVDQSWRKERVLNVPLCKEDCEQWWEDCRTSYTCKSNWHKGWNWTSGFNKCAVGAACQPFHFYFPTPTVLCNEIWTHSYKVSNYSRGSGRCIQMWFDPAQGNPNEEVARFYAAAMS
Assay Info: cell-based or functional assay
Please answer using the number first and the unit second.

Record excerpt, results attached:
{"columns": ["Binder", "Endpoint Value"],
 "data": [
  ["M9346A-sGMBS-LDL-DM (conjugate 17c) (antibody, human IgG1, kappa, V domains shown, maytansinoid LDL-DM (compound 14c, L-Ala-D-Ala-L-Ala) linked through sulfo-GMBS to antibody amines, 3.7 mol LDL-DM/mol antibody) VH: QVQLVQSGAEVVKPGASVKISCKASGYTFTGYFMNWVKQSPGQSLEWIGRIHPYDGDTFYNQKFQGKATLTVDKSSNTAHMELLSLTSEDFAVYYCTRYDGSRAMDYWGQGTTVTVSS VL: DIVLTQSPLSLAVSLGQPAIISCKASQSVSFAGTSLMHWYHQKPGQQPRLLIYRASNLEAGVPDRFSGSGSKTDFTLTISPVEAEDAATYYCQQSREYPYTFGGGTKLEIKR", "0.6 nM"],
  ["conjugate 17i (antibody, human IgG1, kappa, V domains shown, thio-peptide-maytansinoid 14i linked through sulfo-GMBS to antibody amines (Example 4)) VH: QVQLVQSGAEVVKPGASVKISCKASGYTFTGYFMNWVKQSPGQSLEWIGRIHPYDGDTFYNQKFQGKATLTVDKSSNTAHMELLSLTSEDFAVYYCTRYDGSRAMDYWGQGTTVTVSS VL: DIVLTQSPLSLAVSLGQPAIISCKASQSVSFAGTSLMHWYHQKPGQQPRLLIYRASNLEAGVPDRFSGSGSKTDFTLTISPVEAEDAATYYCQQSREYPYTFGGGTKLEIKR", "0.7 nM"]
]}

Query binder follows.
Input line: Form field: reported IC50, in vitro cytotoxicity (WST-8, 5 days), Jeg-3 cells, ADC of conjugate 17g (antibody, human IgG1, kappa, V domains shown, thio-peptide-maytansinoid 14g linked through sulfo-GMBS to antibody amines (Example 4)) VH: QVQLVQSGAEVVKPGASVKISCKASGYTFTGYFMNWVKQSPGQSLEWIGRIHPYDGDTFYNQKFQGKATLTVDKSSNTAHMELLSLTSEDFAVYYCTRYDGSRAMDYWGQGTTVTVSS VL: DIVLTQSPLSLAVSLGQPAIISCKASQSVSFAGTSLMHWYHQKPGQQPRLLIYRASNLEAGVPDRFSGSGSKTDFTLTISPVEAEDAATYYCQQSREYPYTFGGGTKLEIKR
Output line: 0.5 nM
